Source listed as patent US20230157952A1.

The entries below come with measured Purity(%) from day 0-14 values attached.
- METHOD_DESCRIPTION: Effect of pH value on the stability of the solution (purity)
- Format: physicochemical
- TEST_PARAMETERS: day 14, pH 8.0, 7% in water, 25° C.
Output spec: scalar in %, unitless text.

# MOLECULE, QUANTITY_UNIT, Purity(%) from day 0-14
data = [
    ("CCN(CC)CCOC(=O)c1ccccc1OC(C)=O.O=C(O)/C=C\\C(=O)O [A-1]", "%", 16.1),
    ("CCN(CC)CCOC(=O)c1ccccc1OC(C)=O.O=C(O)c1ccccc1 [A-2]", "%", 17.7),
]

Tell me the measured Purity(%) from day 0-14 of CC(O)C(=O)O.CCN(CC)CCOC(=O)c1ccccc1OC(C)=O [A-3] , please.
15.0

Likewise for CCCCC(=O)O.CCN(CC)CCOC(=O)c1ccccc1OC(C)=O [A-4] ?
15.2

----------
- METHOD_DESCRIPTION: Effect of temperature (and pH) on the stability of the solution (purity)
- Format: physicochemical
- TEST_PARAMETERS: 7% solution in water, pH 1.0, day 21, 40° C.
MEASURE: Purity(%) at day 21 (40° C.)
Hi! Could you send only the number? It should be in %, unit omitted.

Example entries and their recorded answers appear below.
# COMPOUND, Purity(%) at day 21 (40° C.)
rows = [
    ("CCN(CC)CCOC(=O)C(C)c1ccc(-c2ccccc2)c(F)c1.Cl (racemic)", 18.5),
    ("CCN(CC)CCOC(=O)C(C)c1ccc2oc(-c3ccc(Cl)cc3)nc2c1.Cl (stereo not shown)", 11.3),
    ("CCN(CC)CCOC(=O)CCc1ccc2cc(OC)ccc2c1.Cl", 16.3),
]

Now take the following compound into account.
Look up Purity(%) at day 21 (40° C.): `CCN(CC)CCOC(=O)COC(=O)Cc1c(C)n(C(=O)c2ccc(Cl)cc2)c2ccc(OC)cc12.Cl`
15.6

----------
- METHOD_DESCRIPTION: Stability of the pure HPDs (dry solid) at 25° C./RH 60%
- Assay type: physicochemical
- TEST_PARAMETERS: pure HPD, 25° C./RH 60%, 24 month
MEASURE: Purity
Simply state the number, no unit and no words.

# MOLECULE, MEASURE, MEASURED_VALUE
rows = [
    ("CC(C)Cc1ccc([C@@H](C)C(=O)OC[C@@H]2CCCN2)cc1.Cl", "Purity", 97.9),
]

Entry under review: Br.CCN(CC)CCOC(=O)C(C)c1ccc2cc(OC)ccc2c1 (racemic) . Reported Purity?
97.7

Proceed to Br.CCN(CC)CCOC(=O)[C@H](C)c1ccc(CC(C)C)cc1 (racemic)
98.0

Field entry: CCN(CC)CCOC(=O)[C@H](C)c1ccc2cc(OC)ccc2c1.O=C(O)CC(O)(CC(=O)O)C(=O)O (racemic)
97.8

# repeat for CC(C)Cc1ccc([C@@H](C)C(=O)OCCN(C)C)cc1.Cl (racemic)
97.7

Repeat for the following molecule: CCN(CC)CCOC(=O)C(C)c1ccc(-c2ccccc2)c(F)c1.Cl (stereo not drawn)
98.0

Now the molecule `CCCCC(=O)O.CCN(CC)CCOC(=O)c1ccccc1OC(C)=O`
97.2

What about CCCCN(CCCC)CCOC(=O)C(C)c1ccc(CC(C)C)cc1.Cl (racemic) ?
98.1

Next molecule up: CCN(CC)CCOC(=O)C(C)c1ccc(CC(C)C)cc1.Cl (racemic)
97.9

----------
- METHOD_DESCRIPTION: Effect of temperature (and pH) on the stability of the solution (purity)
- Assay type: physicochemical
- TEST_PARAMETERS: 7% solution in water, pH 5.0, day 21, 5° C.
MEASURE: Purity(%) at day 21 (5° C.)
// units = %; emit number, no label

Consider the reported Purity(%) at day 21 (5° C.) for these compounds:
# COMPOUND, QUANTITY_UNIT, Purity(%) at day 21 (5° C.)
rows = [
    ("CCN(CC)CCOC(=O)CCc1nc(-c2ccccc2)c(-c2ccccc2)o1.Cl", "%", 96.3),
    ("CCN(CC)CCOC(=O)CCc1ccc2cc(OC)ccc2c1.Cl", "%", 97.5),
    ("CCN(CC)CCOC(=O)C(C)c1ccc2oc(-c3ccc(Cl)cc3)nc2c1.Cl (stereo not drawn)", "%", 97.1),
]

Here's the next entry for you.
Entry under review: `CCN(CC)CCOC(=O)COc1nn(Cc2ccccc2)c2ccccc12.Cl` . Reported Purity(%) at day 21 (5° C.)?
95.9

----------
- METHOD_DESCRIPTION: Effect of concentration on the stability of the solution (purity over time)
- TEST_PARAMETERS: 0.01 wt % in 50% ethanol, 25° C.
MEASURE: Purity (%) at hr 24
Quick note: give the figure in %, leave out the unit.

# COMPOUND, Purity (%) at hr 24
rows = [
    ("CC(C)(C)OC(=O)c1ccccc1 [t-Butyl benzoate, reference compound]", 0.0),
    ("CCOC(=O)c1ccccc1 [Ethyl benzoate, reference compound]", 97.6),
    ("CC(C)(C)OC(=O)C(N)Cc1ccccc1 (centres unmarked) [t-Butyl 2-amino-3-phenylpropanoate, reference compound]", 96.1),
    ("CC(C)OC(=O)c1ccccc1 [Isopropyl benzoate, reference compound]", 98.3),
]

API: the following record is the query input.
Which value of Purity (%) at hr 24 has been reported for CC(C)OC(=O)C(N)Cc1ccccc1 (centres unmarked) [Isopropyl 2-amino-3-phenylpropanoate, reference compound] in the records?
98.3

----------
- METHOD_DESCRIPTION: Effect of concentration on the stability of the solution (purity over time)
- TEST_PARAMETERS: 10 wt % in 50% ethanol, 25° C.
MEASURE: Purity (%) at Day 7
Give the value in % but do not write % after it.

Any idea what its Purity (%) at Day 7 is? The molecule is CC(C)OC(=O)C(N)Cc1ccccc1 (centres unmarked) [Isopropyl 2-amino-3-phenylpropanoate, reference compound]
98.5

Queued: CCOC(=O)c1ccccc1 [Ethyl benzoate, reference compound]
97.8

How about this molecule: CC(C)OC(=O)c1ccccc1 [Isopropyl benzoate, reference compound]
98.4

Now consider CC(C)(C)OC(=O)C(N)Cc1ccccc1 (centres unmarked) [t-Butyl 2-amino-3-phenylpropanoate, reference compound] .
93.9

Okay, and CC(C)(C)OC(=O)c1ccccc1 [t-Butyl benzoate, reference compound] ?
0.0

----------
Below, each of the compounds is paired with its reported Purity(%) at day 21 (5° C.) value.
- METHOD_DESCRIPTION: Effect of temperature (and pH) on the stability of the solution (purity)
- Format: physicochemical
- TEST_PARAMETERS: 7% solution in water, pH 8.0, day 21, 5° C.
I only need the number, in %, no unit after it.

# COMPOUND, MEASURED_VALUE
rows = [
    ("CCN(CC)CCOC(=O)COC(=O)Cc1c(C)n(C(=O)c2ccc(Cl)cc2)c2ccc(OC)cc12.Cl", 78.5),
]

Endpoint output: Purity(%) at day 21 (5° C.) of `CCN(CC)CCOC(=O)CCc1nc(-c2ccccc2)c(-c2ccccc2)o1.Cl` . Value?
77.1

Field entry: CCN(CC)CCOC(=O)C(C)c1ccc(-c2ccccc2)c(F)c1.Cl (racemic)
81.9

And the next one, `CCN(CC)CCOC(=O)Cc1c(C)n(C(=O)c2ccc(Cl)cc2)c2ccc(OC)cc12.Cl` ?
79.3

Entry `CCN(CC)CCOC(=O)CCc1ccc2cc(OC)ccc2c1.Cl` please
79.7

----------
- METHOD_DESCRIPTION: Effect of concentration on the stability of the solution (purity over time)
- TEST_PARAMETERS: 10 wt % in 50% ethanol, 25° C.
Recorded Purity(%) at Day 28 for the following molecules
Please state the figure in %; there is no need to write the unit.

Sample answers from the record:
# MOLECULE, QUANTITY_UNIT, Purity(%) at Day 28
data = [
    ("CC(C)OC(=O)c1ccccc1 [Isopropyl benzoate, reference compound]", "%", 98.4),
    ("CC(C)OC(=O)C(N)Cc1ccccc1 (stereo not shown) [Isopropyl 2-amino-3-phenylpropanoate, reference compound]", "%", 97.3),
    ("CCOC(=O)c1ccccc1 [Ethyl benzoate, reference compound]", "%", 97.6),
]

Consider now this further molecule.
Give its Purity(%) at Day 28 value. Item: CC(C)(C)OC(=O)C(N)Cc1ccccc1 (stereo not shown) [t-Butyl 2-amino-3-phenylpropanoate, reference compound]
59.2

----------
Reported Purity at Day 28 by item:
- METHOD_DESCRIPTION: Effect of concentration on the stability of the solution (purity over time)
- TEST_PARAMETERS: 8 wt %; in water at 25° C.
The reply should contain only the number, in %.

Worked examples follow.
# COMPOUND, Purity at Day 28 / %
data = [
    ("CCN(CC)CCOC(=O)Cc1sc(-c2ccccc2)nc1-c1ccc(Cl)cc1.Cl", 97.6),
    ("CCN(CC)CCOC(=O)[C@H](C)c1ccc2cc(OC)ccc2c1.Cl (racemic)", 97.6),
]

Return reported Purity at Day 28; argument: `CCN(CC)CCOC(=O)CCc1nc(-c2ccccc2)c(-c2ccccc2)o1.Cl`
97.5
